# TARGET_DESC: T1, IA peptide (Octet assay of PS557 variants)
# T1 construct: Peptide coated on the Octet sensor
# ASSAY_REMARKS: Octet (BLI), peptide on sensor, response after 200 s association
Collected Octet response values appear next to each entry.
Entry format: amount then unit.

// known answers, use as guide
Fill in Octet response for record PS824 (designed binder, Variant of PS557) MPTAASATESAFEDTPAPARPEVDGRTKPKRQPRYHVVLWDDDDHTYQYVVVMLRSLFGHPPERGYRLAKEMDTQGRVIVLTTTREHAELKRDQIHAFGYDRLLARSKGSMKASIEAEE
13.5 nm

Output Octet response of PS557 (other, Natural ClpS parent protein; also called WT; wild-type protein) MPTAASATESAIEDTPAPARPEVDGRTKPKRQPRYHVVLWNDDDHTYQYVVVMLQSLFGHPPERGYRLAKEVDTQGRVIVLTTTREHAELKRDQIHAFGYDRLLARSKGSMKASIEAEE
8.79 nm

Consider the binder PS833 (designed binder, Variant of PS557) MPTAASATESAIEDTPAPARPVVDGRTKPKRQPRYHVVLWDDDDHTYQYVVVMLQSLFGHPPERGYRLAKEMDTQGRVIVLTTTREHAELKRDQIHAFGYDRLLARSKGSMKASIEAEE . State its measured Octet response.
9.26 nm

# context switch: different binder, same Octet response
Provide one value: measured Octet response of PS852 (designed binder, Variant of PS557) MPTAASATESAIEDTPAPARPEVDGRTKPKHQPRYHVVLWDDDDHTYQYVVVMLRSLFGHPPERGYRLAKEMDTQGRVIVLTTTREHAELKRDQIHAFGYDRLLARSKGSMKASIEAEE
9.38 nm

Every entry's value here was drawn from patent US20240272170A1.
